- protocolText: Pharmacokinetic assay in SD rats (plasma and brain tissue)
- Assay type: in vivo
- conditionsUsed: rat, po; Plasma, male SD rats, p.o. 5 mg/kg; read-out: Area under curve AUC0-t
assayEndpoint: AUC(0-t) (ng·h/mL)
Answer in ng·h/mL, number only, no unit symbol.

Use these answered entries as a reference point.
smilesdata=C[C@@H]1c2nnc(-c3nc4cc(F)c(F)cc4s3)n2CCN1C(=O)c1ccc(F)cc1 recordednumber=46700
smilesdata=C[C@@H]1c2nnc(-c3nc(Cl)ns3)n2CCN1C(=O)c1ccc(Cl)cc1 recordednumber=7130

### Prompt Kindly indicate its recorded AUC(0-t). Item: [2H]c1cc(C(=O)N2CCn3c(-c4nc(Cl)ns4)nnc3[C@H]2C)ccc1F
### Response 6150

### Prompt Kindly indicate its recorded AUC(0-t). Item: C[C@@H]1c2nnc(-c3nc4cnc(Cl)cc4s3)n2CCN1C(=O)c1ccc(F)cc1
### Response 77800
